Please provide measured pKd for the entries that follow.
experimental system: RBC36
test description: Isothermal titration calorimetry
Assay type: binding
condition: read-out: Values shown are Kd
# pKd: negative log10 of molar concentration; output just the value

Entry under test: CC(=O)N[C@H]1C(O)O[C@H](CO)[C@@H](O[C@@H]2O[C@H](CO)[C@H](O)[C@H](O)[C@H]2O[C@@H]2O[C@@H](C)[C@@H](O)[C@@H](O)[C@@H]2O)[C@@H]1O (some centres unmarked) [H-trisaccharide] . Its pKd was 5.08

Entry under test: C[C@@H]1O[C@@H](O[C@H]2[C@H](O[C@H]3[C@H](O)[C@@H](O)C(O)O[C@@H]3CO)O[C@H](CO)[C@H](O)[C@@H]2O)[C@@H](O)[C@H](O)[C@@H]1O (some centres unmarked) . Its pKd was 4.24
